Ref: PubChem BioAssay AID1274

# EXPERIMENTAL_TARGET: Neutrophil cytosol factor 1 (Homo sapiens) (UniProt P14598)
# Sequence (P14598 whole entry, looked up): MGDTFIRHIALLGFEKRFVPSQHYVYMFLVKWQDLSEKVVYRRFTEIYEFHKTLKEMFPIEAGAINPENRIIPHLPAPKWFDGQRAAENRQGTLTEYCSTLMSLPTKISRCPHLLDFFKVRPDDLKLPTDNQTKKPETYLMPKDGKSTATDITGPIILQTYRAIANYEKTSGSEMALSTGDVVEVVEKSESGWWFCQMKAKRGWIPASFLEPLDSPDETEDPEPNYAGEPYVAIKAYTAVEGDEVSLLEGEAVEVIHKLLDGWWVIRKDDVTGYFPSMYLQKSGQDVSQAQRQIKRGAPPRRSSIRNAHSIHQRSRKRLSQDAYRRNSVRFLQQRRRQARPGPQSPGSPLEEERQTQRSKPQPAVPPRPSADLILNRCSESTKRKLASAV
# PROCEDURE_SUMMARY: blockers of p47phox binding to p22phox – biochemical, uHTS, NADPH oxidase regulatory subunit, primary screen (AID 1274);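 further: 0% = p47phox with labelled peptide and 100% = labelled peptide alone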
# EXPERIMENTAL_PARAMETERS: p47phox/p22phox peptide binding, fluorescence polarization, 2 h; at 24.7 µM; active compounds read high
In all, about 220,000 compounds went through this assay and about 1,100 (0.5%) were called active. The sample as a whole holds a higher share of actives than the screen did.
PROPERTY_NAME: inhibition

Past entries and their recorded results:
compound=Cc1cccc2cc(CN(Cc3cccs3)C(=S)NCc3ccco3)c(=O)[nH]c12 property_name=inhibition value="-184% (inactive)"
compound=Cc1ccc(C)c2[nH]c(=O)c(CN(Cc3cccnc3)C(=S)NCc3ccco3)cc12 property_name=inhibition value="40.3% (active)"
compound=COc1ccc(NC(=S)SC)cc1OC property_name=inhibition value="-0.91% (inactive)"
compound="C/C=C(\\C)C(=O)N1CC2(CC(c3cccc(NC(=O)CCCCC)c3)=NO2)C[C@@H]1C(N)=O (some centres not stated)" property_name=inhibition value="-4.05% (inactive)"
compound=COc1ccc(Cl)cc1C(=O)NCc1cn(C)nc1C property_name=inhibition value="-8.12% (inactive)"
compound=O=C(Nc1ccccc1)N(Cc1cccnc1)Cc1ccco1 property_name=inhibition value="-9.87% (inactive)"
compound=Fc1ccccc1Cn1cnc(NC(=S)NCCc2ccccc2)n1 property_name=inhibition value="5.03% (inactive)"
compound="OC(CNCC1CCCO1)Cn1c2ccc(Br)cc2c2cc(Br)ccc21 (configuration not stated)" property_name=inhibition value="64% (active)"

// sample "Cc1c(C(=O)N(Cc2ccccc2)Cc2cccnc2)cnn1-c1ccc(F)cc1" , its inhibition was -0.45% (inactive)

// sample "Oc1oc(-c2ccccc2Br)nc1/C=N/c1ccccn1" , its inhibition was -6.08% (inactive)

// sample "COc1ccc(/C=C/C(=O)OCC(=O)NCc2cccs2)cc1OC" , its inhibition was -9.49% (inactive)

// sample "O=c1[nH]c2ccccc2n2c(-c3ccccc3)nnc12" , its inhibition was 69.6% (active)

// sample "CN(C)C(=O)CSc1n[nH]c(-c2ccco2)n1" , its inhibition was -9.79% (inactive)

// sample "CCOC(=O)c1cnc2[nH]c3ccccc3n2c1=O" , its inhibition was 0.2% (inactive)

// sample "Cc1nc2ncnn2c(C)c1CCC(=O)N1CCN(C(=O)c2ccco2)CC1" , its inhibition was 2.67% (inactive)

// sample COC(=O)c1nc2n(n1)C(c1ccc([N+](=O)[O-])cc1)C(C(=O)Nc1ccc(Cl)cc1)=C(C)N2 (configuration not stated) , its inhibition was 35.3% (active)

// sample COc1ccc(N2C(=O)CC(SC(C)C)C2=O)cc1 (configuration not stated) , its inhibition was -5.28% (inactive)

###

# Lookup of reported inhibition keyed by entry
# EXPERIMENTAL_TARGET: Neutrophil cytosol factor 1 (Homo sapiens) (UniProt P14598)
# PROCEDURE_SUMMARY: blockers of p47phox binding to p22phox – biochemical, uHTS, NADPH oxidase regulatory subunit, primary screen (AID 1274);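 further: 0% = p47phox with labelled peptide and 100% = labelled peptide alone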
# EXPERIMENTAL_PARAMETERS: p47phox/p22phox peptide binding, fluorescence polarization, 2 h; at 24.7 µM; active compounds read high
Out of some 220,000 compounds screened, about 1,100 (0.5%) were called active. The sample as a whole holds a higher share of actives than the screen did.
Unit % implied. Number only.

compound=CCNc1ccc(C(=O)OCC(=O)N2c3ccccc3NC(=O)C2(C)C)cc1[N+](=O)[O-] value=-6.42
compound="CCOC(=O)N1CCC(NC(=O)C(NS(=O)(=O)c2ccc3c(c2)CCN3C(=O)CC)C(C)C)CC1 (centres undefined)" value=2.67
compound=Cc1cc(C)n2nc(SCC(N)=O)nc2n1 value=-2.75
compound=Cc1cc(C)n2nc(SCC(=O)NC(=O)NCc3ccco3)nc2n1 value=65.5
compound=COC(=O)c1sc(NC(=S)NC(=O)c2ccc(C)cc2)nc1C value=-24.1
compound="O=C(NCCc1c[nH]c2ccccc12)C(=O)NCC1CCCO1 (centres undefined)" value=-9.36
compound=O=C(COc1ccc([N+](=O)[O-])cc1Cl)Nn1cnnc1 value=-5.37
compound=CCCCN=C1C([N+](=O)[O-])=CC=C2C1=NC1(CCCCC1)N2O value=103

Attention now shifts to the item below.
// sample "CS(=O)(=O)N1CCc2cc(C(=O)Nc3ccccc3)ccc21" , its inhibition was -4.32
